system: SF-295 CNS; assay: NCI tumour cell line growth inhibition, 48 h
# reported log10(TGI); entries follow
Assay endpoint: log10(TGI) (log10 of the value in µM)

Molecule	Assay target	Assay endpoint	Result number
N#Cc1c(N)nc(N2CCOCC2)c(C#N)c1-c1ccc(Cl)cc1Cl	SF-295 CNS	log10(TGI)	1.71
CCC(=C(c1ccc(OCCN(CC)CC)cc1)c1ccc(OCCN(CC)CC)cc1)c1ccc(Cl)cc1	SF-295 CNS	log10(TGI)	0.08
COc1ccc(C[C@H](N)C(=O)N[C@@H]2[C@@H](CO)OC(n3cnc4c(N(C)C)ncnc43)[C@@H]2O)cc1 (some centres not stated)	SF-295 CNS	log10(TGI)	0.34
O=C1CSC(c2cccc(Oc3ccccc3)c2)N1c1cc(Cl)ccc1Cl (configuration not stated)	SF-295 CNS	log10(TGI)	1.74
CCNC(=O)O/N=C1/C=C2CC[C@@H]3C(CC[C@@]4(C)C3CC[C@@H]4OC(=O)NCC)[C@@]2(C)CC1 (some centres not stated)	SF-295 CNS	log10(TGI)	0.85

---

# TGI listing for each entry below
system: MOLT-4 leukemia; assay: NCI tumour cell line growth inhibition, 48 h

Smiles data	Display unit	Censoring operator	TGI
O=C1NC2(CCCCC2)C2=C1CCCCC2	µM	>	100
Cn1c(=O)c(-c2c(Cl)cccc2Cl)cc2cnc(Nc3ccc(N4CCOCC4)cc3)nc21	µM	=	0.804
O=C(COC(=O)[C@H](C[Se][Se]C[C@H](NC(=O)c1ccc(Br)cc1F)C(=O)OCC(=O)c1ccc(F)cc1)NC(=O)c1ccc(Br)cc1F)c1ccc(F)cc1	µM	=	71.3
O=C1c2sccc2C(=O)c2c(CO)csc21	µM	>	52.9
Nc1nc2c(ccc3ccccc32)[nH]1	µM	>	10

---

tested on: HS 578T breast; assay: NCI tumour cell line growth inhibition, 48 h; in the data active = GI50 below about 0.43 µM; inactive = the rest
Classes used: true (1) = active, false (0) = inactive

Compound	Class label
OCCn1c(-c2ccncc2)c(-c2ccc(F)cc2)c2ncccc21	false (0)
CCC(=C(c1ccc(OCCN(CC)CC)cc1)c1ccc(OCCN(CC)CC)cc1)c1ccc(Cl)cc1	false (0)
O=C(c1ccccc1)c1ccc(N2C(=O)C3C4c5ccccc5C(/C=C/C(=O)c5ccccn5)(c5ccccc54)C3C2=O)cc1 (stereo not given)	false (0)
COc1cccc2c(Nc3ccc(C(=O)NCCN4CCNCC4)cc3)cc(-c3ccccc3)nc12	false (0)
O=C(COC(=O)[C@H](C[Se][Se]C[C@H](NC(=O)c1ccc(Br)cc1F)C(=O)OCC(=O)c1ccc(F)cc1)NC(=O)c1ccc(Br)cc1F)c1ccc(F)cc1	true (1)

---

system: M19-MEL melanoma; test: NCI tumour cell line growth inhibition, 48 h
Measured TGI by item

Molecule	TGI
CCNC(=O)O/N=C1/C=C2CC[C@@H]3C(CC[C@@]4(C)C3CC[C@@H]4OC(=O)NCC)[C@@]2(C)CC1 (stereo partly specified)	10.3 µM
O=[N+]([O-])c1cccc2c1[nH]c1c(-c3ccccc3)nccc12	6.14 µM
CCOC(=O)C1=C(O)c2c(OC)ccc(OC)c2C(=O)C1=O	> 100 µM
Nc1cc(O)c2cc(N=Nc3ccc(N=Nc4ccc(N=Nc5ccc6cc(S(=O)(=O)O)cc(S(=O)(=O)O)c6c5)c5ccccc45)c4cc(S(=O)(=O)O)ccc34)c(S(=O)(=O)O)cc2c1	> 100 µM
CCOC(=O)C1C(=O)C(=O)N2CCc3c([nH]c4ccccc34)C12 (stereo unspecified)	> 100 µM
NC(=O)NC(=O)C1CCC(=O)N1S(=O)(=O)c1ccc(Cl)cc1 (stereo unspecified)	> 100 µM
NC1CC(n2ccc(=O)[nH]c2=O)OC1C(O)CO (stereo unspecified)	> 100 µM
CCCCc1c2c(nc3c1CC/C(=C\c1ccccc1)C3=O)CCCC2	16.9 µM
CCOC(=O)Oc1ccc2[nH]c3c(C)cc(N)c(C)c3c2c1	> 100 µM
CCCNc1ncnc2c1cnn2C	> 100 µM
CC1=C2[C@@H](c3ccccc3)C3C=CC2(C=C3C(F)(F)F)N(C(=O)NC2CCCCC2)C1=O (stereo partly specified)	> 100 µM
CN(C)c1ccc(/C=C2\Cc3ccccc3C2=O)cc1Br	> 100 µM
Cn1c(=O)c(C#N)c(O)c2cc3ccccc3nc21	> 100 µM
Nc1nc(N)c(-c2ccccc2)c(C(=O)Nc2nccs2)n1	> 100 µM
CCOC(=O)/C(=C/c1ccc[nH]1)P(=O)(OCC)OCC	> 100 µM
Cc1[nH]n(C(=O)c2ccc(Cl)cc2)c(=O)c1/C=C1\C(O)=CC(=O)c2ccccc21	> 100 µM

---

Recorded TGI for the following molecules
tested on: BT-549 breast; assay: NCI tumour cell line growth inhibition, 48 h

Molecule	TGI
CCOP(=O)(OCC)/C(C#N)=C(\C)c1ccco1	> 10 µM
CC(=O)OC1C(C)OC(OC2C[C@](O)(C(C)=O)Cc3c(O)c4c(c(O)c32)C(=O)c2ccccc2C4=O)C(F)C1OC(C)=O (stereo partly specified)	33.2 µM
Nc1nc(N)c2ncn(Cc3ccccc3)c2n1	> 100 µM
FC(F)(Sc1nc2ccccc2[nH]1)c1nc2ccccc2o1	> 100 µM
O=C(COC(=O)[C@H](C[Se][Se]C[C@H](NC(=O)c1ccc(Br)cc1F)C(=O)OCC(=O)c1ccc(F)cc1)NC(=O)c1ccc(Br)cc1F)c1ccc(F)cc1	1.31 µM
COc1ccc(-c2cc(-c3ccc(Nc4ccnc5cc(C(F)(F)F)ccc45)cc3)nc(N)c2C#N)c2ccccc12	> 100 µM
COC(=O)c1ccccc1NCc1cc(O)ccc1O	15 µM
Cn1c(=O)c2c(n(C)c1=O)n1c(=O)c3ccccc3nc1n2C	> 100 µM
COC(=O)/C(=C/c1ccc(OC)cc1)c1cc(OC)c(OC)c(OC)c1	> 100 µM
CC(=O)OC/C=C/Cn1nc(Br)c(=O)[nH]c1=O	> 100 µM
Cc1cccc2c1Oc1ncccc1C2NC(=O)CN(C)C (stereo unspecified)	> 10 µM
O=C(/C=C/N1CCN(c2cccc(Cl)c2)CC1)c1ccc(Cl)cc1	50.2 µM
COc1cc(CC2C(=O)OCC2Cc2ccc(OC)c(OC)c2)ccc1O (stereo unspecified)	> 100 µM
CCc1c[nH]c2ncnc(N3CC[C@](N)(CNC(=O)c4ccc(F)cc4F)C3)c12	18.1 µM
Nn1c(=S)[nH]nc(/C=C/c2c(O)ccc3ccccc23)c1=O	31.3 µM
CC(=O)CC(=O)N1CCOC1=O	> 10 µM
CO[C@@H](c1ccccc1)[C@H](O)[C@@](O)(c1ccccc1)P(=O)(OC)OC	> 100 µM
C(/Cc1ccc2c(c1)OCO2)=N\NC1=NCCCCN1	> 100 µM
COC(=O)C(NC(=O)c1ccccc1)c1ccc(OC)c(I)c1 (stereo unspecified)	> 100 µM
CC(C)=C[C@@H]1C[C@H](C)[C@H]2CC[C@H](C)[C@H]3C(=O)C(O)=C(C)C(=O)[C@]123	> 100 µM
Cc1cc(C2(c3cc(C)c(O)c4ncccc34)OC(=O)c3ccccc32)c2cccnc2c1O	> 100 µM

---

test system: UACC-257 melanoma; experiment: NCI tumour cell line growth inhibition, 48 h
TGI below 5 µM gives no (0); TGI at or above it gives yes (1).

Compound	Assay target	Class label
O=C1c2sccc2C(=O)c2c(CO)csc21	UACC-257 melanoma	yes (1)
CCCCc1c2c(nc3c1CC/C(=C\c1ccccc1)C3=O)CCCC2	UACC-257 melanoma	yes (1)
O=P1(C(O)c2ccccc2)N(Cc2ccccc2)[C@@H]2CCCC[C@H]2N1Cc1ccccc1 (stereo partly specified)	UACC-257 melanoma	yes (1)
CN(C)C(=O)c1cc2cnc(Nc3ccc(N4CCNCC4)cn3)nc2n1C1CCCC1	UACC-257 melanoma	yes (1)
CCCCCNC(=O)OC1CCn2c1nc1c2C(=O)C(C)=C(N2CC2)C1=O (stereo unspecified)	UACC-257 melanoma	no (0)
Nc1nc2c(c(-c3ccc(F)cc3)n1)COC/C2=C\c1ccc(F)cc1	UACC-257 melanoma	yes (1)
NS(=O)(=O)c1cc2c(cc1Cl)NC(C(=O)NNC(=O)c1ccncc1)=NS2(=O)=O	UACC-257 melanoma	yes (1)
Oc1ccc(CCNc2nc3ccccc3c3[nH]c4ccccc4c23)cc1	UACC-257 melanoma	no (0)
COC(=O)C1=C(C)C(=O)C2(CCCCCC2C(=O)OC)C1 (stereo unspecified)	UACC-257 melanoma	yes (1)
COC(=O)C(NC(=O)c1ccccc1)c1ccc(OC)c(I)c1 (stereo unspecified)	UACC-257 melanoma	yes (1)
CO/C(N)=C(\C#N)N=Cc1cccs1	UACC-257 melanoma	yes (1)

---

Here, each record is paired with measured TGI data.
test system: MOLT-4 leukemia; test: NCI tumour cell line growth inhibition, 48 h

Molecule	TGI
Clc1cc2ncn(C3CCCO3)c2cc1Cl (stereo unspecified)	> 100 µM
O=P1(C(O)c2ccccc2)N(Cc2ccccc2)[C@@H]2CCCC[C@H]2N1Cc1ccccc1 (stereo partly specified)	49.1 µM
NC1=NN(c2ccccc2)C(=O)C1/C(=N\NC(=O)c1cc2ccccc2cc1O)C(=O)Nc1ccc(Cl)cc1 (stereo unspecified)	40.5 µM
Cc1cc(N(CCCl)CCCl)ccc1/C=N\NC(=O)c1cccnc1	39.2 µM
COC(=O)CCSC(=O)Nc1ccccc1Cl	> 100 µM
CC(=O)Nc1ccc(C(=O)NN2C(=O)CSC2c2ccccc2)cc1 (stereo unspecified)	> 100 µM
Nc1cc(O)c2cc(N=Nc3ccc(N=Nc4ccc(N=Nc5ccc6cc(S(=O)(=O)O)cc(S(=O)(=O)O)c6c5)c5ccccc45)c4cc(S(=O)(=O)O)ccc34)c(S(=O)(=O)O)cc2c1	> 100 µM
N#Cc1c2c(c(Nc3ccc(Cl)cc3)n3c1nc1ccccc13)CCCC2	> 100 µM
Nn1c(=S)[nH]nc(/C=C/c2c(O)ccc3ccccc23)c1=O	86.1 µM
CCOC(=O)C(NC(=O)c1cccc(Cl)c1)(N1CCN(c2cc3c(cc2F)c(=O)c(C(=O)O)cn3CC)CC1)C(F)(F)F (stereo unspecified)	19.3 µM
O=C1Cc2c([nH]c3c(Br)cccc23)-c2ccccc2N1	43.6 µM
